# method_summary: Cytotoxicity against CRFK cells after 3 days
# Type: cell-based, Felis catus
# settings: cat
quantity_kind: CC50 at 72 h

I am curious: what CC50 at 72 h value has been reported for Nc1nc2c(ncn2COC(CO)CO)c(=O)[nH]1 [GANCICLOVIR] ? > 100 µM

What measured CC50 at 72 h goes with CC(C)(C)C(=O)OCOP(=O)(C/C=C/Cn1cnc2c(=O)[nH]c(N)nc21)OCOC(=O)C(C)(C)C ? > 100 µM

Values compiled from ChEMBL document CHEMBL2146385.
